Values compiled from PubChem BioAssay (Tox21).

Target: Thyrotropin receptor (Homo sapiens)
Protocol Details: qHTS assay to identify small molecule agonists of the thyroid stimulating hormone receptor (TSHR) signaling pathway (AID 1224843); note: nearly all actives have a fitted effect of over 45% in size
Run Parameters: TSHR-HEK293 cells, cAMP HTRF, agonist mode, 30 min; series mostly up to 92.4 µM
Records with an inconclusive call do not appear. Calls of active or inactive are those of the source. Calls come from the whole dose curve.
Result Type: outcome

Here are 8 compounds together with their reported answers.
| Compound | Result Type | Value Reported |
| --- | --- | --- |
| CC1(C)COP(Oc2ccccc2)OC1 | outcome | inactive |
| COP(=S)(OC)Oc1ccc(S(N)(=O)=O)cc1 | outcome | inactive |
| Clc1cccc(N2CCNCC2)c1 | outcome | inactive |
| CN1C(=S)CN=C(c2ccccc2)c2cc(Cl)ccc21 | outcome | inactive |
| CCC(C)n1c(=O)[nH]c(C)c(Br)c1=O (stereo not drawn) | outcome | inactive |
| O=[N+]([O-])c1ccc2c3c(cccc13)CC2 | outcome | inactive |
| CCC(=O)c1ccccc1 | outcome | inactive |
| CCN(Cc1ccc(Cl)nc1)/C(=C/[N+](=O)[O-])NC | outcome | inactive |

# outcome lookup, item CC1COC2(c3ccccc3Cl)c3cc(Cl)ccc3NC(=O)CN12 (stereo not drawn)
inactive

What value of outcome has been recorded for this entry: CCOP(=S)(OCC)Oc1nc(Cl)n(C(C)C)n1
inactive

Value lookup for outcome; key = COP(N)(=S)Oc1ccccc1C(=O)OC(C)C (stereo not drawn)
inactive

Consider the compound shown here: CCN(CC)CCOC(=O)C(C)(c1ccccc1)c1ccccc1 What is its recorded outcome?
inactive

Any idea what outcome was measured for CCCCc1c(C)nc(NCC)[nH]c1=O ?
inactive
